# protocolSummary: NOVARTIS: Cytotoxicity against human hepatocellular carcinoma cell line (Huh7)
# Assay type: toxicity, cell-based, Huh-7
# particulars: Huh7 cells (hepatocellular carcinoma cell line)
assayEndpoint: CC50

> print(dat)
                                   compound     value
1  CN(CCCNc1ccnc2cc(Cl)ccc12)C(=O)c1cc(C(F)(F)F)cc(C(F)(F)F)c1   > 10 µM
2  COc1ccc(Nc2nc(-c3cc4cc(OC)ccc4oc3=O)cs2)c(OC)c1  > 100 µM
3  CCCC(C)C(C(=O)Nc1c(C)cccc1C)N1C(=O)c2cc(NC(C)=O)ccc2NC(=O)[C@@H]1CCC(=O)O (some centres undefined)   8.51 µM
4  CCN1CCN(c2nc3ccccn3c(=O)c2/C=C2\SC(=S)N(C(C)C)C2=O)CC1   > 10 µM
5  CC(C)(C)CC(C)(C)Nc1c(-c2ccccc2OC(=O)/C=C/c2ccccc2)nc2ccccn12   > 10 µM
6  Cc1cc(C)c(NC(=S)N(CCCN2CCCCC2)Cc2cccs2)c(C)c1   > 10 µM
7  O=C(Nc1ccc(-c2nnc(-c3ccc(NC(=O)c4ccccc4[N+](=O)[O-])cc3)o2)cc1)c1ccccc1[N+](=O)[O-]  > 100 µM
8  O=C(c1ccccc1F)N1CCN(Cc2ccccc2C(F)(F)F)CC1  > 100 µM
9  Cc1cccc(NC(=O)c2ccc(N3CC4CC(C3)c3cccc(=O)n3C4)c(NC(=O)Cc3c(F)cccc3Cl)c2)n1 (centres undefined)   > 10 µM

* * *

# System: Plasmodium falciparum
# protocolSummary: NOVARTIS: Inhibition of Plasmodium falciparum 3D7 (drug-susceptible) proliferation in erythrocyte-based infection assay
# Type: functional, organism-based
# particulars: Plasmodium falciparum, 3D7
pEC50: −log10 of the molar value.
pEC50 below 6 gives Not fulfilled; pEC50 at or above it gives Fulfilled.

> print(dat)
                                   compound  classassignment
1  Cc1n(-c2ccccc2)c2c([n+]1C)C(=O)c1ccccc1C2=O        Fulfilled
2  CCN(CCN1CCN(S(=O)(=O)c2cc(Cl)ccc2Cl)CC1)CC1=CCC2CC1C2(C)C (stereo not given)    Not fulfilled

* * *

// values below are reported log10 of EC50
# Test system: Plasmodium falciparum
# protocolSummary: NOVARTIS: Inhibition of Plasmodium falciparum W2 (drug-resistant) proliferation in erythrocyte-based infection assay
# Assay type: functional, organism-based
# particulars: Plasmodium falciparum, W2; read-out: EC50
assayEndpoint: log10 of EC50 (log10 of the value in nM)

> print(dat)
                                    compound  value
 1  CCCCN(CC)S(=O)(=O)c1cc(Br)cc2c1N(C(C)=O)CC2   2.64
 2               Cc1ccc(NC(=O)ON=C2CCCC2)cc1   2.56
 3  CCOC(=O)C1=C(N)N(c2cccc([N+](=O)[O-])c2)C2=C(C(=O)CC(C)(C)C2)C1c1ccc(Br)cc1 (configuration not stated)   2.18
 4  Oc1c(C(Nc2ccccn2)c2ccncc2)ccc2cccnc12 (configuration not stated)   2.95
 5  COCCNCc1cc2cc3c(cc2n(Cc2cccc(F)c2)c1=O)OCO3   3.10
 6  CCN1/C(=C/c2ccc3cc(OC)ccc3[n+]2CC)Sc2ccc(NC(C)=O)cc21   1.92
 7  CCNC(=O)N(CCCCOc1ccc(C(C)(C)CC)cc1C(C)(C)CC)Cc1ccc(OC)c(OCc2ccccc2)c1   1.79
 8  Cc1ccc(C(C(=O)NC2CCCCC2)N(C(=O)c2ccc(-c3ccccc3)[nH]2)c2ccc(C3CCCCC3)cc2)o1 (configuration not stated)   3.17
 9  CN(C)c1ccc2c(c1)Sc1cc(N(C)C)ccc1N2C(=O)c1ccccc1   2.37
10  COc1cc(C(=O)NC(c2ccccc2Cl)c2cc(Cl)c3cccnc3c2O)cc(OC)c1OC (configuration not stated)   3.54
11  CN(CCCNc1ccnc2cc(Cl)ccc12)S(=O)(=O)c1ccc([N+](=O)[O-])cc1   2.34
12  CCCOC(=O)C1=C(C)NC2=C(C(=O)CC(c3ccc(OC)c(OC)c3)C2)C1c1ccc(Cl)cc1Cl (configuration not stated)   0.64
13  CCOc1ccc2nc3cc(NC(=O)c4ccc(C)cc4)ccc3c(N)c2c1   3.00
14  Cc1ccc(N(C)C(=O)CCNS(=O)(=O)c2cc(Br)cnc2N)cc1   2.35
15  O=C(NCc1ccccc1)c1cnc(NCCCn2ccnc2)nc1NC1CCCC1   3.12
16  COc1ccc(C(c2ccc(N(C)C)cc2)c2ccc(N(C)C)cc2)cc1   2.44
17  O=C(Nc1ccc(-c2nc3ccc(NC(=O)c4ccc(Br)cc4)cc3[nH]2)cc1)c1ccc(Br)cc1   2.62
18  COc1cc(OC)cc(C(=O)N2CCC(C(=O)Nc3cccc4ccccc34)CC2)c1   2.69
19           c1ccc2c(c1)ccc1cc3cccc[n+]3cc12   2.90
20  Cc1ccc2c(C)nc(Nc3nc(C)cc(-c4ccccc4)n3)nc2c1   2.76
21  C=C[C@H]1CN2CC[C@H]1C[C@H]2[C@H](O)c1ccnc2ccc(OC)cc12   3.12
22         Cc1cc(Nc2cccc(C(F)(F)F)c2)nc(N)n1   3.27
23  CON(C)C=C(C(=O)Nc1ccc(C(F)(F)F)cc1)C(=O)Nc1ccc(C(F)(F)F)cc1   2.71
24                 COc1ccc2nc3ccccc3c(N)c2c1   2.25
25  CCNc1nc(OC)nc(Oc2ccc(=O)n(-c3ccccc3)n2)n1   2.77
26  Cc1ccc(C(OCC(C)(C)C[N+](C)(C)C)c2ccccc2)cc1 (configuration not stated)   2.80
27  CC(C)(C)c1nn(-c2ccc(Cl)cc2)c2[nH]c(=O)c(CNCc3ccccc3)cc12   2.73
28  O=C1C(NC2CCCC2)=C(N2CCCCC2)C(=O)c2ccccc21   1.53
29             COc1ccc2[nH]c3ccccc3c(=O)c2c1   3.50
30  COc1ccccc1/C=C/C1=NC(=C\c2ccc(SC)cc2)/C(=O)O1   2.36
31  CCc1c(C#N)c(N)nc(SCC(=O)c2ccc(C)cc2C)c1C#N   2.29
32  CC(NCCC(c1ccccc1)c1ccccc1O)c1ccccc1 (configuration not stated)   2.44
33  CC(=O)Nc1ccc2c(c1)C(=O)N(C(C(=O)NCc1ccccc1)C1CCCCC1)[C@@H](Cc1ccc(O)cc1)C(=O)N2 (some centres not stated)   2.74
34          CC(C)c1ccc(C=CC(=O)NCc2ccco2)cc1   3.30
35                    CC(=NNC(=S)NN)c1ccccn1   2.59

* * *

# Tested on: Plasmodium falciparum
# protocolSummary: NOVARTIS: Inhibition of Plasmodium falciparum 3D7 (drug-susceptible) proliferation in erythrocyte-based infection assay
# Type: functional, organism-based
# particulars: Plasmodium falciparum, 3D7
assayEndpoint: log10(EC50) (log10 of the value in nM)

> print(dat)
                                   compound  value
1       Fc1ccc2nc(Nc3nc(-c4ccccn4)cs3)sc2c1   3.10
2      COc1ccc(C(=O)C[n+]2ccc(N)c(C)c2C)cc1   2.64
3  COc1ccc(C(=O)C[n+]2ccc3c(c2)nc(-c2ccc(OC)cc2OC)n3C)cc1   2.96
4        CCOc1ccc2nc(C)cc(Nc3cccc(O)c3)c2c1   2.30
5  CCOC(=O)C1=C(C)NC2=C(C(=O)CC(c3ccc(OC)c(OC)c3)C2)C1c1cccc(Cl)c1Cl (stereo not given)   1.52
6  CCCN1CCC(N2C[C@@H](NC3CCN(CCc4ccccc4)CC3)C[C@H]2C(=O)NCCc2ccc3c(c2)OCO3)CC1   1.94

* * *

// values below are reported CC50
# protocolSummary: NOVARTIS: Cytotoxicity against human hepatocellular carcinoma cell line (Huh7)
# Assay type: toxicity, cell-based, Huh-7
# particulars: Huh7 cells (hepatocellular carcinoma cell line)
assayEndpoint: CC50

> print(dat)
                                    compound       value
 1       Cn1cc(/C=C/c2cc[n+](C)cc2)c2ccccc21   > 8.99 µM
 2                      CCSc1sc2sccc2[n+]1CC   > 8.58 µM
 3   Oc1ccc(C=NN=C(Nc2ccccn2)c2ccccn2)c(O)c1  > 0.245 µM
 4  CC1(C)C2C[C@@H](COC(=O)NC(=O)c3ccccc3)[C@]3(C)[C@H](C21)C3(Cl)Cl (stereo partly specified)   > 11.2 µM
 5  COc1ccc(NC(=O)C2=C(C)NC(=S)NC2c2ccc(O)cc2)cc1 (stereo unspecified)     > 10 µM
 6    CCOC(=O)c1c(C)n(-c2ccccc2)c2ccc(O)cc12    > 100 µM
 7  CCN(CC)c1ccc(C=Cc2cc[n+](Cc3ccc(F)cc3)cc2)cc1     5.29 µM
 8  CCN1CCN(c2cc(C)c3cc(NC(=O)c4cc(OC)cc(OC)c4)ccc3n2)CC1     12.9 µM
 9  CCN1CCN(c2c(C(=O)c3ccccc3)cnc3cc(OC)c(OC)cc23)CC1    > 100 µM
10  COc1ccc(CC(=O)N(CCCC(C)Nc2cc(OC)cc3cccnc23)Cc2ccc(OC)c(OC)c2)cc1 (stereo unspecified)   > 10.8 µM
11          NNc1nc(NCc2ccccc2)nc(N2CCOCC2)n1     > 10 µM
